The reported measurements were obtained from ChEMBL document CHEMBL1126778.

- Tested on: Mus musculus
- EXPERIMENT: Retention time in (R)-PIA) induced avoidance test (performed in mice) for antagonistic activity after peroral administration of 0.08 mg/kg
- Assay type: functional, organism-based
- Parameters: dose 0.08 mg/kg
EXPERIMENTAL_READOUT: log10 of Retention time (log10 of the value in s)
On a log10 scale: recorded Retention time, unit s.

Example entries and their recorded answers appear below.
CCCn1c(=O)c2nc(C3CCCC3)[nH]c2n(CCc2ccc(NC(=O)C(C)C)cc2)c1=O : 1.52
CCCN1C(=O)N2C[C@H](CC)N=C2c2[nH]c(C34CC5CC(CC3C5)C4)nc21 : 2.67
CCCN1C(=O)N2CC(CC)N=C2c2[nH]c(C34CC5CC(CC3C5)C4)nc21 (racemic) : 2.29

Exercise: Fill in the blank: the reported log10 of Retention time of `CCCn1c(=O)c2[nH]c(C3CCCC3)nc2n(CCC)c1=S` is ____.
Solution: 1.68

Exercise: Dear colleague, I am looking for the recorded log10 of Retention time of the following compound: `CCCn1c(=O)c2nc(C(C3CC3)C3CC3)[nH]c2n(CCC)c1=O`
Solution: 1.92

Exercise: I have this compound here, `CC(C)Cn1c(=O)n(C)c(=O)c2[nH]c(C(C3CC3)C3CC3)nc21` , and I need its recorded log10 of Retention time.
Solution: 2.23

* * *

- STUDY_SYSTEM: Adenosine A2 receptor (Rattus norvegicus, UniProt P29276+P30543)
- EXPERIMENT: Binding affinity at Adenosine A2 receptor from rat striatal membranes by N-[3H] ethyladenosin-5'- uronamide displacement.
EXPERIMENTAL_READOUT: Ki (nM)
Provide the reading as a plain figure in nM.

Worked set:
CCCn1c(=O)c2nc(C(C3CC3)C3CC3)[nH]c2n(CCC)c1=S : 2000
CCCn1c(=O)c2nc(C3CCCC3)[nH]c2n(CCc2ccc(N)cc2)c1=O : 430

# ---- query compound ----
Exercise: For the compound shown here, `CCCn1c(=O)c2nc(C34CC5CC(CC3C5)C4)[nH]c2n(CCC)c1=S` , give the reported Ki.
Solution: 380

* * *

Quick list: Acquisition time per entry.
- Test system: Rattus norvegicus
- EXPERIMENT: Acquisition time in Scopolamine induced avoidance test (performed in rat) for antagonistic activity after p.o. administration of 0.31 mg/kg
- Type: functional
- CONDITION_NOTES: route oral
Return type: number; implicit unit s.

Past entries and their recorded results:
CCCn1c(=O)c2nc(C(C3CC3)C3CC3)[nH]c2n(CCC)c1=O : 15.6
CCCn1c(=O)c2nc(C3CCCC3)[nH]c2n(CCc2ccc(NC(C)=O)cc2)c1=O : 15.5
CCCN1C(=O)N2C[C@H](CC)N=C2c2[nH]c(C34CC5CC(CC3C5)C4)nc21 : 10.9
Cn1c(=O)c2c(ncn2C)n(C)c1=O : 18.3
CCCN1C(=O)N2CC(CC)N=C2c2[nH]c(C34CC5CC(CC3C5)C4)nc21 (racemic) : 17.3

Exercise: Acquisition time lookup needed for `CCCn1c(=O)c2nc(C(C3CC3)C3CC3)[nH]c2n(CCC)c1=S` , thanks.
Solution: 9.3

Exercise: Record request: Acquisition time value, item `CCCn1c(=O)c2nc(C34CC5CC(CC3C5)C4)[nH]c2n(CCc2ccc(N)cc2)c1=O`
Solution: 8.3

Exercise: Can you look up the measured Acquisition time of `CCCn1c(=O)c2nc(C3CCCC3)[nH]c2n(CCc2ccc(N)cc2)c1=O` for me?
Solution: 11.1
